Lab note: MIC readings collected with Aeromonas sobria for the following molecules.
Numeric only. Scale: µg/mL

query: API: value(readout=MIC, system=Aeromonas sobria) for record CC[C@H]1OC(=O)[C@H](C)[C@@H](O[C@H]2C[C@@](C)(OC)[C@@H](O)[C@H](C)O2)[C@H](C)[C@@H](O[C@@H]2O[C@H](C)C[C@H](N(C)C)[C@H]2O)[C@](C)(O)C[C@@H](C)CN(C)[C@H](C)[C@@H](O)[C@]1(C)O [azithromycin, reference compound]
result: 20

query: Please state recorded MIC (tested on Aeromonas sobria) of "O=C(Nc1nccs1)c1cc(N=Nc2nccs2)ccc1O"
result: 40

query: Entry "O=C(Nc1ccc(S(=O)(=O)c2nccs2)cc1)c1cc(N=Nc2nccs2)ccc1O" , system Aeromonas sobria: what MIC was measured?
result: 40

query: Tell me reported MIC for "O=C(Nc1nc2ccccc2s1)c1cc(N=Nc2nccs2)ccc1O" , tested with Aeromonas sobria.
result: 10

query: Give the reported MIC for "O=C(O)c1cc(N=Nc2nccs2)ccc1O" (system: Aeromonas sobria).
result: 20

Data origin: paper PMC10668576
